Origin of measurements: the supplement of paper PMC6555819

- Test system: RARg:RXRa (NR concentration 270 nM, RXRa partner concentration 90 nM)
- procedure details: PBM binding z-score (relative to random genomic background probes); higher = stronger binding; sequences stand for … in GC…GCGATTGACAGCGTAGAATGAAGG
Measured PBM binding z-score of individual entries
endpoint name: PBM binding z-score

seq: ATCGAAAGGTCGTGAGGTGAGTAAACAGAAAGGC
target entity: RARg:RXRa (NR concentration 270 nM, RXRa partner concentration 90 nM)
endpoint name: PBM binding z-score
assay value: 4.68
--
seq: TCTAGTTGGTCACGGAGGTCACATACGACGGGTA
target entity: RARg:RXRa (NR concentration 270 nM, RXRa partner concentration 90 nM)
endpoint name: PBM binding z-score
assay value: 4.42
--
seq: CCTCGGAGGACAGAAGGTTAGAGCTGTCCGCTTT
target entity: RARg:RXRa (NR concentration 270 nM, RXRa partner concentration 90 nM)
endpoint name: PBM binding z-score
assay value: 0.736
--
seq: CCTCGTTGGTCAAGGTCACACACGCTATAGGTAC
target entity: RARg:RXRa (NR concentration 270 nM, RXRa partner concentration 90 nM)
endpoint name: PBM binding z-score
assay value: 4.58
--
seq: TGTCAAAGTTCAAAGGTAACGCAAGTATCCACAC
target entity: RARg:RXRa (NR concentration 270 nM, RXRa partner concentration 90 nM)
endpoint name: PBM binding z-score
assay value: 6.5
--
seq: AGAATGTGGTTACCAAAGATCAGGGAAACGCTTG
target entity: RARg:RXRa (NR concentration 270 nM, RXRa partner concentration 90 nM)
endpoint name: PBM binding z-score
assay value: 0.0233
--
seq: CCGAGTAGGTTATGGGGCATTCAGGCAACGGTGA
target entity: RARg:RXRa (NR concentration 270 nM, RXRa partner concentration 90 nM)
endpoint name: PBM binding z-score
assay value: 0.469
--
seq: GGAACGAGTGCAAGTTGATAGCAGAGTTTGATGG
target entity: RARg:RXRa (NR concentration 270 nM, RXRa partner concentration 90 nM)
endpoint name: PBM binding z-score
assay value: -0.00885
--
seq: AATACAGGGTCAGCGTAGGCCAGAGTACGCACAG
target entity: RARg:RXRa (NR concentration 270 nM, RXRa partner concentration 90 nM)
endpoint name: PBM binding z-score
assay value: 4.93
--
seq: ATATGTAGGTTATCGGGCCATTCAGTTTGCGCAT
target entity: RARg:RXRa (NR concentration 270 nM, RXRa partner concentration 90 nM)
endpoint name: PBM binding z-score
assay value: 0.874
--
seq: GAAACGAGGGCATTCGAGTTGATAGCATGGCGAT
target entity: RARg:RXRa (NR concentration 270 nM, RXRa partner concentration 90 nM)
endpoint name: PBM binding z-score
assay value: 1.26
